# targetDesc: human NaV1.8 (Homo sapiens (Human), UniProt Q9Y5Y9)
# Sequence (Q9Y5Y9 whole entry): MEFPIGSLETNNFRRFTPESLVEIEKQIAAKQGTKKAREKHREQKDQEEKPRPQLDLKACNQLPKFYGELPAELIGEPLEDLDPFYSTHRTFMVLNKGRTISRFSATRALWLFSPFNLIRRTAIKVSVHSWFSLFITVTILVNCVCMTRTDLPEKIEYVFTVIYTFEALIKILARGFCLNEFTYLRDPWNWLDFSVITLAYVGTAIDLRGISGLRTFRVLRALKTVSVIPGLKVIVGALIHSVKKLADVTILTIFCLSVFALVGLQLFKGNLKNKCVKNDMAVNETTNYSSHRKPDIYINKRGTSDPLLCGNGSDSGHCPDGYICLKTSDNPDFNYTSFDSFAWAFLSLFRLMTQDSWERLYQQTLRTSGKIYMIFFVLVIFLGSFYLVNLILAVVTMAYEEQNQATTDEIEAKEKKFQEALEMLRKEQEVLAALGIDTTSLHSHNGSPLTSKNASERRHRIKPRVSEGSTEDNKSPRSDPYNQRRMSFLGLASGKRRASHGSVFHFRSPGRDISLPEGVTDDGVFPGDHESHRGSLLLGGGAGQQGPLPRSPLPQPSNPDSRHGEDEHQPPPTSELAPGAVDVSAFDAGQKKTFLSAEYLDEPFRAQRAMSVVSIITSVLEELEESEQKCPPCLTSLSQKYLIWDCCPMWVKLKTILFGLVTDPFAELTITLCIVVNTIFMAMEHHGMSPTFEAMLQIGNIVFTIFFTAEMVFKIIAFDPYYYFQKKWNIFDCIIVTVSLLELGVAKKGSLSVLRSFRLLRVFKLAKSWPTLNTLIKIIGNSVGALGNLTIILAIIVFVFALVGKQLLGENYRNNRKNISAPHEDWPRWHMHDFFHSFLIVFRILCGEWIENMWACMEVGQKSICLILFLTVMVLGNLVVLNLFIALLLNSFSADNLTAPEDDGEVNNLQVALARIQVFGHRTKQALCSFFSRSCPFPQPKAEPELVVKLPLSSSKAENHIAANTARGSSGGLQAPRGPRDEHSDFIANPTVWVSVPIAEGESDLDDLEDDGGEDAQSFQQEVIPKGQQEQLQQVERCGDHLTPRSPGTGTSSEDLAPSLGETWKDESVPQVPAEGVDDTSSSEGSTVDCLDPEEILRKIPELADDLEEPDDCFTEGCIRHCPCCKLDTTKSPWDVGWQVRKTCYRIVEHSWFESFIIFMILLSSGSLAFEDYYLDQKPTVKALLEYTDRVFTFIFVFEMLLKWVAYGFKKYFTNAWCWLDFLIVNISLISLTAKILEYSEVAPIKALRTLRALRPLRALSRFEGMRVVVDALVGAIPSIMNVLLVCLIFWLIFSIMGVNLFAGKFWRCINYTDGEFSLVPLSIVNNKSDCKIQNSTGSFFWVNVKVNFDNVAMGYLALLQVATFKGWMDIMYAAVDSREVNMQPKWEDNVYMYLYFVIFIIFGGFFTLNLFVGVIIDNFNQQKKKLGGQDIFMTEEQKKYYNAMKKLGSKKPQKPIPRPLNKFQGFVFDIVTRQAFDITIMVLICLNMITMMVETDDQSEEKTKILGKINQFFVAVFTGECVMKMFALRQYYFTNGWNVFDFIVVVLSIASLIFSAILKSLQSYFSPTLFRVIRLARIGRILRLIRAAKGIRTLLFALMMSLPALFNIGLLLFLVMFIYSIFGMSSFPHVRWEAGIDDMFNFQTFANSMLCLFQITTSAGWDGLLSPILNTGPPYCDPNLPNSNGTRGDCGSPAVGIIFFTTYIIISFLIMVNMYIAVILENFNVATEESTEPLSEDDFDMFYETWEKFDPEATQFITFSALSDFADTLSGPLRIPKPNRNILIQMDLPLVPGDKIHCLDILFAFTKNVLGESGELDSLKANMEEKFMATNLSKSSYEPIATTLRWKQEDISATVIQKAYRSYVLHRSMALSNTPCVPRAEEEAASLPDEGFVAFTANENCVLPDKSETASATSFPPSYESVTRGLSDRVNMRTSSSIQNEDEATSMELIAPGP
# testDetails: Nav1.8 Qube automated patch-clamp assay
# Type: cell-based
# conditionSet: human NaV1.8 stably expressed in HEK 293 cells; automated 384-well patch-clamp; resting or inactivated state not specified
For each of the compounds below, state its log10(IC50).
A difference of one corresponds to tenfold IC50; all values are log10 with IC50 in nM.

Entry O=C1NC[C@@H](C(=O)NC(c2cnc(C(F)(F)F)c(Cl)c2)c2ccc(F)c(Cl)c2F)N1 (single isomer, unassigned) , log10(IC50) reported as 0.04

Per the records, this compound ( O=C1NC[C@@H](C(=O)NC(CC2CCCCC2)c2ccc(F)c(Cl)c2F)N1 (single isomer, unassigned) [Example 54B] ) has log10(IC50) equal to 1.70

Memo: CS(=O)(=O)c1ccc(C(NC(=O)[C@@H]2CNC(=O)N2)c2ccc(F)c(Cl)c2)cc1 (single isomer, unassigned) [Example 85B] , reported log10(IC50): 3.11

Form field log10(IC50), entry O=C1NC[C@@H](C(=O)NC(c2ccc(Cl)cc2)c2ccn3nccc3c2)N1 (single isomer, unassigned) [Example 80B] : 2.03

Lab note: O=C1NC[C@@H](C(=O)NC(c2ccc(Cl)cc2)c2ccc3ncsc3c2)N1 (mixture of isomers) gave log10(IC50) of 1.73

The compound O=C1NC[C@@H](C(=O)NC(c2ccc(Cl)cc2)c2ccc3c(c2)CC3(F)F)N1 (single isomer, unassigned) showed log10(IC50) equal to 0.58

O=C1NC[C@@H](C(=O)NC(c2cnc(C3CC3)c(Cl)c2)c2ccc(F)c(Cl)c2F)N1 (single isomer, unassigned) [Example 13A] yielded log10(IC50) of 0.04

Form: compound = O=C1NC[C@@H](C(=O)NC(c2cnc(C(F)(F)F)c(F)c2)c2ccc(F)c(Cl)c2F)N1 (single isomer, unassigned) ; log10(IC50) = 0.49

Given item O=C1NC[C@@H](C(=O)NC(c2ccc(F)c(Cl)c2F)[C@@H]2CC[C@@H](C(F)(F)F)CO2)N1 (single isomer, unassigned) [Example 8A] , the value recorded as its log10(IC50) is 3.06

The recorded log10(IC50) for entry O=C(NC(c1ccc(Cl)cc1)c1ccc(Cl)cc1)C1CNC(=O)N1CCO (single isomer, unassigned) [Example 21B] equals 4.17

Entry O=C1NC[C@@H](C(=O)NC(c2ccc(OC(F)(F)F)c(Cl)c2)c2coc(C(F)(F)F)n2)N1 (single isomer, unassigned) [Example 47B] — recorded log10(IC50) = 0.59

* * *

I'd appreciate it if you could supply IC50 values for the items below.
# targetDesc: UniProt:Q9Y5Y9
# testDetails: Nav1.8 Qube automated patch-clamp assay
# Format: cell-based
# conditionSet: human NaV1.8 stably expressed in HEK 293 cells; automated 384-well patch-clamp; resting or inactivated state not specified
Could you give me the number in nM? Just the number is fine.

Noted for CC(N1CC(C)(C(NC(=O)[C@@H]2CNC(=O)N2)c2ccc(F)c(Cl)c2F)C1)C(F)(F)F (single isomer, unassigned) [Example 65C] : its IC50 reads 309

Note to self: IC50 recorded for O=C1NC[C@@H](C(=O)NC(c2cnc(OC(F)F)s2)c2ccc(F)c(Cl)c2F)N1 (single isomer, unassigned) [Example 36A] was 12

The measured IC50 associated with O=C1NC[C@@H](C(=O)NC(c2ccc(F)c(Cl)c2F)C2COC(C(F)(F)F)C2)N1 (single isomer, unassigned) [Example 79E] reads 49

For reference, reported IC50 for N#Cc1cc(C(NC(=O)[C@@H]2CNC(=O)N2)c2ccc(OC(F)(F)F)cc2)ccc1Cl (single isomer, unassigned) [Example 57A] stands at 3.5
